- Test system: S180 ascites
- PROCEDURE DETAILS: Anti-Tumor Screening; S180 ascites in mice (% increase in life span, survivors)
- Type: in vivo, female CFW Swiss mice
- SETTINGS: 320 mg/kg
VALUE KIND: Survivors

(Q) Find the measured Survivors: item O=C([O-])C(=O)C(=O)[O-].O=C([O-])C(=O)C(=O)[O-].[K+].[K+].[Pd+2] [Example 2, Potassium Bis(Ketomalonato)palladate(II)] , target or system S180 ascites.
(A) 0 of 6

(Q) Find the measured Survivors: item O=C([O-])CC(=O)[O-].O=C([O-])CC(=O)[O-].[K+].[K+].[Pd+2] [K2 [Pd(Malonate)2]] , target or system S180 ascites.
(A) 0 of 6

(Q) Find the measured Survivors: item `O=C([O-])C1(C(=O)[O-])CCC1.O=C([O-])C1(C(=O)[O-])CCC1.[K+].[K+].[Pd+2]` , target or system S180 ascites.
(A) 0 of 6

(Q) Find the measured Survivors: item `CC(C)(C(=O)[O-])C(=O)[O-].CC(C)(C(=O)[O-])C(=O)[O-].[K+].[K+].[Pd+2]` , target or system S180 ascites.
(A) 0 of 6

----------
- Test system: S180 ascites
- PROCEDURE DETAILS: Anti-Tumor Screening; S180 ascites in mice (% increase in life span, survivors)
- Assay type: in vivo, female CFW Swiss mice
- SETTINGS: 80 mg/kg
- Experimental: The compounds used in this invention were evaluated against S180 ascites in female CFW Swiss mice. […] The effectiveness of a test compound was measured in terms of the % increase in life span (% ILS) of the test mice relative to the Normal Control (Calculated from the day of tumor inoculation, i.e., day zero). […] The % ILS was calculated as follows: […] The test compounds were evaluated in water.
VALUE KIND: Survivors

(Q) Tell me the measured Survivors of O=C([O-])C(=O)C(=O)[O-].O=C([O-])C(=O)C(=O)[O-].[K+].[K+].[Pd+2] [Example 2, Potassium Bis(Ketomalonato)palladate(II)] , please.
(A) 1 of 6

(Q) Tell me the measured Survivors of `CCC(C(=O)[O-])C(=O)[O-].CCC(C(=O)[O-])C(=O)[O-].[K+].[K+].[Pd+2]` , please.
(A) 0 of 6

(Q) Tell me the measured Survivors of `O=C([O-])C1(C(=O)[O-])CCC1.O=C([O-])C1(C(=O)[O-])CCC1.[K+].[K+].[Pd+2]` , please.
(A) 0 of 6

(Q) Tell me the measured Survivors of `CC(C)(C(=O)[O-])C(=O)[O-].CC(C)(C(=O)[O-])C(=O)[O-].[K+].[K+].[Pd+2]` , please.
(A) 0 of 6

----------
- Test system: S180 ascites
- PROCEDURE DETAILS: Anti-Tumor Screening; S180 ascites in mice (% increase in life span, survivors)
- Format: in vivo, female CFW Swiss mice
- SETTINGS: 320 mg/kg
Can you tell me % ILS for the items I'm about to list?

(Q) Find the measured % ILS: item O=C([O-])C(=O)C(=O)[O-].O=C([O-])C(=O)C(=O)[O-].[K+].[K+].[Pd+2] [Example 2, Potassium Bis(Ketomalonato)palladate(II)] , target or system S180 ascites.
(A) 17%

(Q) Find the measured % ILS: item O=C([O-])C1(C(=O)[O-])CCC1.O=C([O-])C1(C(=O)[O-])CCC1.[K+].[K+].[Pd+2] [Example 6] , target or system S180 ascites.
(A) -75%

(Q) Find the measured % ILS: item O=C([O-])CC(=O)[O-].O=C([O-])CC(=O)[O-].[K+].[K+].[Pd+2] [K2 [Pd(Malonate)2]] , target or system S180 ascites.
(A) -74%

(Q) Find the measured % ILS: item CC(C)(C(=O)[O-])C(=O)[O-].CC(C)(C(=O)[O-])C(=O)[O-].[K+].[K+].[Pd+2] [Example 7] , target or system S180 ascites.
(A) 26%
